Examples of compounds with documented DC50 follow.
ASSAY_TARGET: HiBiT tagged Wee1 (Homo sapiens)
Sequence (P30291 whole entry): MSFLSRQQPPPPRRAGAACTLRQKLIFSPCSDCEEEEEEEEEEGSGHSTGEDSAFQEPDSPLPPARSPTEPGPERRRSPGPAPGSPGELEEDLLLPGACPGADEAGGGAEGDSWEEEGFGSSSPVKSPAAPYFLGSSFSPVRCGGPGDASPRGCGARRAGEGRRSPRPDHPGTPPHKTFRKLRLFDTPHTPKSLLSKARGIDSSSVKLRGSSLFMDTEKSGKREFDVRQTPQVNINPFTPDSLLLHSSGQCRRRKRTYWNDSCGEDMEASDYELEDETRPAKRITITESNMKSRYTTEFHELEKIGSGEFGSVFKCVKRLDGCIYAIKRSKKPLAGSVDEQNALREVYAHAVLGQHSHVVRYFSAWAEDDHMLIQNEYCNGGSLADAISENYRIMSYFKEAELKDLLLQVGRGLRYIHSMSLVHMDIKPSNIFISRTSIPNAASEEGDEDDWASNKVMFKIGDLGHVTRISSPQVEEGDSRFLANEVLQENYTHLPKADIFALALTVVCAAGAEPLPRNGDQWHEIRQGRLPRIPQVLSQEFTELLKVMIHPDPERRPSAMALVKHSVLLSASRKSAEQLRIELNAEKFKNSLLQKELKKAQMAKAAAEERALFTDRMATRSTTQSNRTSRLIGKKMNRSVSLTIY
PROTOCOL_NOTES: Wee1 protein degradation assay (HiBiT assay)
Assay type: cell-based
DETAILS: engineered HT-1080 cells, 20 hours

COMPOUND	ASSAY_TARGET	DC50
C=CCn1c(=O)c2cnc(Nc3ccc(N4CCC(CN5CCN(c6cccc7c(C8CCC(=O)NC8=O)nn(C)c67)CC5)CC4)cc3)nc2n1-c1cccc(C(C)(C)O)n1 (stereo not shown)	HiBiT tagged Wee1 (Homo sapiens)	< 100 nM

What measured DC50 goes with C=CCn1c(=O)c2cnc(Nc3ccc(N4CCN(CC5CN(c6ccc(NC7CCC(=O)NC7=O)cc6F)C5)CC4)cc3)nc2n1-c1cccc(C(C)(C)O)n1 (stereo not shown) ?
< 100 nM

Need DC50, item C=CCn1c(=O)c2cnc(Nc3ccc(N4CCN(CCNc5ccc6c(c5)C(=O)N(C5CCC(=O)NC5=O)C6=O)CC4)cc3)nc2n1-c1cccc(C(C)(C)O)n1 (stereo not shown)
< 100 nM

// returns reported DC50 for input C=CCn1c(=O)c2cnc(Nc3ccc(N4CCC(CN5CCN(c6cc7c(cc6F)C(=O)N(C6CCC(=O)NC6=O)C7=O)CC5)CC4)cc3)nc2n1-c1cccc(C(C)(C)O)n1 (stereo not shown)
< 100 nM

Which measured DC50 value corresponds to C=CCn1c(=O)c2cnc(Nc3ccc(N4CCN(CC5CCN(c6ncc(NC7CCC(=O)NC7=O)cc6F)CC5)CC4)cc3)nc2n1-c1ccc2c(n1)[C@@](O)(CC)CC2 (stereo partly shown) ?
< 100 nM

Sample C=CCn1c(=O)c2cnc(Nc3ccc(N4CCC(CN5CCN(c6ccc(NC7CCC(=O)NC7=O)cc6F)CC5)CC4)cc3)nc2n1-c1ccc2c(n1)[C@](C)(O)CC2 (single isomer, unassigned) — what was its DC50?
< 100 nM

Return reported DC50; argument: C=CCn1c(=O)c2cnc(Nc3ccc(N4CCN(CC5CCN(Cc6cccc7c6n(C)c(=O)n7C6CCC(=O)NC6=O)CC5)CC4)cc3)nc2n1-c1cccc(C(C)(C)O)n1 (stereo not shown)
< 100 nM

Name the recorded DC50 for O=C1CCC(Nc2ccc(N3CCN(CC4CCN(c5ccc(Nc6ncc7c(=O)n(-c8c(Cl)cccc8Cl)c8nccn8c7n6)cc5)CC4)CC3)c(F)c2)C(=O)N1 (stereo not shown) .
< 100 nM

# input compound: C=CCn1c(=O)c2cnc(Nc3ccc(C4CCN(CC5CCN(c6ccc7c(C8CCC(=O)NC8=O)nn(C)c7c6)CC5)CC4)cc3)nc2n1-c1cccc(C(C)(C)O)n1 (stereo not shown) ; wanted: its DC50
< 100 nM

Name the reported DC50 value associated with the compound C=CCn1c(=O)c2cnc(Nc3ccc(N4CCN(CC5CCN(c6ccc(NC7CCC(=O)NC7=O)cc6F)CC5)CC4)cc3)nc2n1-c1ccc2c(n1)[C@@](O)(CC)CC2 (mixture of isomers) [Compound 110]
< 100 nM

###

ASSAY_TARGET: HiBiT tagged Wee1 (Homo sapiens)
PROTOCOL_NOTES: Wee1 protein degradation assay (HiBiT assay)
Assay type: cell-based
DETAILS: engineered HT-1080 cells, 20 hours
ASSAY_METRIC: DC50

COMPOUND	DC50
C=CCn1c(=O)c2cnc(Nc3ccc(N4CCN(CC5CCN(c6cc(OC)c(NC7CCC(=O)NC7=O)cc6F)CC5)CC4)cc3)nc2n1-c1ccc2c(n1)[C@@](O)(CC)CC2 (some centres unmarked)	< 100 nM

Look at this compound and give its reported DC50. C=CCn1c(=O)c2cnc(Nc3ccc(N4CCN(CC5CCN(c6ccc(NC7CCC(=O)NC7=O)cn6)CC5)CC4)cc3)nc2n1-c1ccc2c(n1)[C@@](O)(CC)CC2 (some centres unmarked)
< 100 nM

For the compound shown here, C=CCn1c(=O)c2cnc(Nc3ccc(C4CCN(CC5CCN(Cc6ccc7c(c6)n(C)c(=O)n7C6CCC(=O)NC6=O)CC5)CC4)cc3)nc2n1-c1cccc(C(C)(C)O)n1 (centres unmarked) , give the reported DC50.
< 100 nM

// DC50 lookup, key: C=CCn1c(=O)c2cnc(Nc3ccc4c(c3)CN(CCCCNc3ccc5c(c3)C(=O)N(C3CCC(=O)NC3=O)C5=O)CC4)nc2n1-c1cccc(C(C)(C)O)n1 (centres unmarked)
> 1000 nM

Need DC50 of C=CCn1c(=O)c2cnc(Nc3ccc(N4CCC(N5CC6(CN(c7ccc8c(N9CCC(=O)NC9=O)nn(C)c8c7)C6)C5)C(F)(F)C4)cc3)nc2n1-c1ccc2c(n1)[C@@](O)(CC)CC2 (some centres unmarked) , thanks.
< 100 nM

###

PROTOCOL_NOTES: Pharmacokinetic study in mice (IV and PO)
Format: in vivo
DETAILS: mouse, plasma; IV (2 mg/kg), male CD1 mice; read-out: T½ (converted)
Each entry below lists one item and its recorded half-life value.
Give the value; after it, write the unit.

MOLECULE	half-life
C=CCn1c(=O)c2cnc(Nc3ccc(N4CCC(CN5CCC(c6cccc7c6n(C)c(=O)n7C6CCC(=O)NC6=O)CC5)CC4)cc3)nc2n1-c1cccc(C(C)(C)O)n1 (centres unmarked)	5.7 h
C=CCn1c(=O)c2cnc(Nc3ccc(N4CCC(CN5CCN(c6ccc(NC7CCC(=O)NC7=O)cc6F)CC5)CC4)cc3)nc2n1-c1cccc(C(C)(C)O)n1 (centres unmarked)	2.79 h
C=CCn1c(=O)c2cnc(Nc3ccc(N4CCC(CN5CCC(c6ccc(NC7CCC(=O)NC7=O)cc6)CC5)CC4)cc3)nc2n1-c1cccc(C(C)(C)O)n1 (centres unmarked)	2.81 h
C=CCn1c(=O)c2cnc(Nc3ccc(C4CCN(CC5CCN(c6cccc7c6n(C)c(=O)n7C6CCC(=O)NC6=O)CC5)CC4)cc3)nc2n1-c1cccc(C(C)(C)O)n1 (centres unmarked)	7 h

Consider the molecule shown here: C=CCn1c(=O)c2cnc(Nc3ccc(N4CCN(CC5CCN(c6ccc(NC7CCC(=O)NC7=O)cc6F)CC5)CC4)cc3)nc2n1-c1ccc2c(n1)[C@@](O)(CC)CC2 (mixture of isomers) What is its recorded half-life?
3.03 h

###

ASSAY_TARGET: HiBiT tagged Wee1 (Homo sapiens)
PROTOCOL_NOTES: Wee1 protein degradation assay (HiBiT assay)
Format: cell-based
DETAILS: engineered HT-1080 cells, 20 hours; maximum percentage of Wee1 degradation; read-out: HiBiT Wee1: Dmax
ASSAY_METRIC: Dmax

COMPOUND	Dmax
C=CCn1c(=O)c2cnc(Nc3ccc(N4CCN(CC5CCN(c6ccc(NC7CCC(=O)NC7=O)cc6F)CC5)CC4)c(F)c3)nc2n1-c1cccc(C(C)(C)O)n1 (centres unmarked)	> 75%

Fill in the recorded Dmax for this compound, with HiBiT tagged Wee1 (Homo sapiens) as test system: C=CCn1c(=O)c2cnc(Nc3ccc(C4CCN(CC5CCN(c6ccc(N7CCC(=O)NC7=O)cc6)CC5)CC4)cc3)nc2n1-c1cccc(C(C)(C)O)n1
< 50%

Enter reported Dmax observed with HiBiT tagged Wee1 (Homo sapiens) for C=CCn1c(=O)c2cnc(Nc3ccc(N4CCN(CC5CN(c6ccc7c(c6)C(=O)N(C6CCC(=O)NC6=O)C7=O)C5)CC4)c(C)c3)nc2n1-c1cccc(C(C)(C)O)n1 (centres unmarked)
50 to 75%

Record C=CCn1c(=O)c2cnc(Nc3ccc(C4CCN(CC5CCN(Cc6ccc7c(c6)n(C)c(=O)n7C6CCC(=O)NC6=O)CC5)CC4)cc3)nc2n1-c1cccc(C(C)(C)O)n1 (centres unmarked) : what is its Dmax with HiBiT tagged Wee1 (Homo sapiens)?
50 to 75%

Look up Dmax with HiBiT tagged Wee1 (Homo sapiens) for this compound: C=CCn1c(=O)c2cnc(Nc3ccc(N4CCC(N5CCC(c6ccc(NC7CCC(=O)NC7=O)cc6F)CC5)CC4)cc3)nc2n1-c1cccc(C(C)(C)O)n1 (centres unmarked)
> 75%

###

ASSAY_TARGET: UniProt:P30291
PROTOCOL_NOTES: Wee1 protein degradation assay (HiBiT assay)
Type: cell-based
DETAILS: engineered HT-1080 cells, 20 hours
ASSAY_METRIC: DC50

Reference set (3 entries):
COMPOUND	ASSAY_TARGET	DC50
Cc1cc(Nc2ncc3c(n2)N(C)CN(c2c(Cl)cccc2Cl)C3=O)ccc1N1CCC(CN2CCN(c3cccc4c3C(=O)N(C3CCC(=O)NC3=O)C4=O)CC2)CC1 (centres unmarked)	UniProt:P30291	> 1000 nM
C=CCn1c(=O)c2cnc(Nc3ccc(N4CCC(N5CCN(c6ccc7c(c6)C(=O)N(C6CCC(=O)NC6=O)C7=O)CC5)CC4)cc3)nc2n1-c1cccc(C(C)(C)O)n1 (centres unmarked)	UniProt:P30291	< 100 nM
O=C1CCC(N2C(=O)c3ccc(N4CCC(CCN5CCN(c6ccc(Nc7ncc8c(=O)n(-c9c(Cl)cccc9Cl)c9nccn9c8n7)cc6)CC5)CC4)cc3C2=O)C(=O)N1 (centres unmarked)	UniProt:P30291	> 1000 nM

May I ask what DC50 has been recorded for CC(C)n1c(=O)c2cnc(Nc3ccc(N4CCN(CC5CCN(c6ccc(NC7CCC(=O)NC7=O)cc6F)CC5)CC4)cc3)nc2n1-c1cccc(C(C)(C)F)n1 (centres unmarked) ?
< 100 nM

Which DC50 is listed for C=CCn1c(=O)c2cnc(Nc3ccc(N4CCC(N5CCN(c6ccc(NC7CCC(=O)NC7=O)cc6F)CC5)CC4)cc3)nc2n1-c1cccc(C(C)(C)O)n1 (centres unmarked) ?
< 100 nM

Could you tell me which DC50 is on file for O=C1CCC(N2C(=O)c3ccc(N4CC(CN5CCC(c6ccc(Nc7ncc8c(=O)n(-c9c(Cl)cccc9Cl)c9nccn9c8n7)cc6)CC5)C4)cc3C2=O)C(=O)N1 (centres unmarked) ?
< 100 nM

Using the record for C=CCn1c(=O)c2cnc(Nc3ccc(N4CCN(CC5CCN(c6ccc7c(c6)C(=O)N(C6CCC(=O)NC6=O)C7=O)CC5)CC4)cc3)nc2n1-c1cccc(C(C)(C)O)n1 (centres unmarked) , report its DC50.
< 100 nM

Bench note: what DC50 did C=CCn1c(=O)c2cnc(Nc3ccc(C4CCN(CC5CCN(c6ccc(NC7CCC(=O)NC7=O)cn6)CC5)CC4)cc3)nc2n1-c1cccc(C(C)(C)O)n1 (centres unmarked) show?
< 100 nM
